Settings: bacteroides thetaiotaomicron, 12 h, 2 µM
Description: The drug is tested on Bacteroides thetaiotaomicron strain: 7330 for biotransformation. The drug concentrations were measured before and after a 12-h incubation by liquid-chromatography-coupled mass spectrometry (LC–MS)
experimental-readout: Bacterial Biotransformation

* COc1cc2nc(N3CCN(C(=O)C4CCCO4)CC3)nc(N)c2cc1OC (stereo unspecified) [TERAZOSIN] | Compound NOT metabolized
* CN1CCC(=C2c3ccccc3CCc3cccnc32)CC1.O=C(O)/C=C\C(=O)O.O=C(O)/C=C\C(=O)O [AZATADINE MALEATE] | Compound NOT metabolized
* Cc1ccc(NC(=O)c2ccc(CN3CCN(C)CC3)cc2)cc1Nc1nccc(-c2cccnc2)n1 [IMATINIB] | Compound NOT metabolized
* N#Cc1ccc2c(c1)N(CCCN1CCC(O)CC1)c1ccccc1S2 [PERICIAZINE] | Compound metabolized
* CC1OC(OC2C(O)CC(OC3C(O)CC(OC4CCC5(C)C(CCC6C5CCC5(C)C(C7=CC(=O)OC7)CCC65O)C4)OC3C)OC2C)CC(O)C1O (stereo unspecified) | Compound metabolized
* CC[C@@]1(O)C(=O)OCc2c1cc1n(c2=O)Cc2cc3c(CN(C)C)c(O)ccc3nc2-1 [TOPOTECAN] | Compound NOT metabolized
* O=C([O-])C[C@H](O)C[C@H](O)/C=C/c1c(C2CC2)nc2ccccc2c1-c1ccc(F)cc1.O=C([O-])C[C@H](O)C[C@H](O)/C=C/c1c(C2CC2)nc2ccccc2c1-c1ccc(F)cc1.[Ca+2] [PITAVASTATIN CALCIUM] | Compound NOT metabolized
* O=C1CN2Cc3c(ccc(Cl)c3Cl)N=C2N1 [ANAGRELIDE] | Compound NOT metabolized
* O=C(O)CCC(=O)O.O=C(O[C@H]1CN2CCC1CC2)N1CCc2ccccc2[C@@H]1c1ccccc1 [SOLIFENACIN SUCCINATE] | Compound NOT metabolized
* CCN(CC)CCNC(=O)c1ccc(NC(C)=O)cc1 [ACECAINIDE] | Compound NOT metabolized
* CN1CCN(C2=Nc3cc(Cl)ccc3Nc3ccccc32)CC1 [CLOZAPINE] | Compound NOT metabolized
* CCCC(C)(COC(N)=O)COC(=O)NC(C)C (stereo unspecified) [CARISOPRODOL] | Compound metabolized
* Br.CN(C)CCCC1(c2ccc(F)cc2)OCc2cc(C#N)ccc21 (stereo unspecified) [CITALOPRAM HYDROBROMIDE] | Compound NOT metabolized
* C[C@@H](CO)NC(=O)[C@@H]1C=C2c3cccc4[nH]cc(c34)C[C@H]2N(C)C1.O=C(O)/C=C\C(=O)O [ERGONOVINE MALEATE] | Compound metabolized
* CC(C)c1c(CN(C)C(C)Cc2ccccc2)n(C)n(-c2ccccc2)c1=O (stereo unspecified) [FAMPROFAZONE] | Compound metabolized
* O=C(NC(Cc1cc(=O)[nH]c2ccccc12)C(=O)O)c1ccc(Cl)cc1 (stereo unspecified) [REBAMIPIDE] | Compound metabolized

###

Assay: The drug is tested on Enterococcus faecalis strain: V583 for biotransformation. The drug concentrations were measured before and after a 12-h incubation by liquid-chromatography-coupled mass spectrometry (LC–MS)
Settings: 2 µM
experimental-readout: Bacterial Biotransformation

* CCCN1C[C@H](CSC)C[C@@H]2c3cccc4[nH]cc(c34)C[C@H]21.CS(=O)(=O)O [PERGOLIDE MESYLATE] | Compound NOT metabolized
* CN1CCC(=C2c3ccccc3CCc3cccnc32)CC1.O=C(O)/C=C\C(=O)O.O=C(O)/C=C\C(=O)O [AZATADINE MALEATE] | Compound NOT metabolized
* O=C(O[C@H]1C[C@H]2CC[C@@H](C1)[N+]21CCCC1)C(O)(c1ccccc1)c1ccccc1.[Cl-] [TROSPIUM CHLORIDE] | Compound NOT metabolized
* CCOC(=O)[C@H](CCc1ccccc1)N[C@@H](C)C(=O)N1Cc2ccccc2C[C@H]1C(=O)O | Compound NOT metabolized
* CCCC(C)(COC(N)=O)COC(=O)NC(C)C (stereo not drawn) [CARISOPRODOL] | Compound NOT metabolized
* CCc1oc2ccccc2c1C(=O)c1cc(Br)c(O)c(Br)c1 [BENZBROMARONE] | Compound NOT metabolized
* CN[C@H]1CC[C@@H](c2ccc(Cl)c(Cl)c2)c2ccccc21 [SERTRALINE] | Compound NOT metabolized
* CCCCC(=O)N(Cc1ccc(-c2ccccc2-c2nnn[nH]2)cc1)[C@H](C(=O)O)C(C)C | Compound NOT metabolized
* O=C(O)c1cc(/N=N/c2ccc(S(=O)(=O)Nc3ccccn3)cc2)ccc1O [SULFASALAZINE] | Compound metabolized
* COc1ccc(/C=C/C(=O)Nc2ccccc2C(=O)O)cc1OC | Compound NOT metabolized
* Cc1cc(C)cc(OCC2CNC(=O)O2)c1 (stereo not drawn) [METAXALONE] | Compound NOT metabolized
* NC12CC3CC(CC(C3)C1)C2 [AMANTADINE] | Compound NOT metabolized
* N=C(N)NC(=O)Cc1c(Cl)cccc1Cl [GUANFACINE] | Compound NOT metabolized
* CC[C@H](C)C(=O)O[C@H]1C[C@@H](C)C=C2C=C[C@H](C)[C@H](CC[C@@H]3C[C@@H](O)CC(=O)O3)[C@H]21 [LOVASTATIN] | Compound metabolized
* Cc1ccc(/C(=C\CN2CCCC2)c2ccccn2)cc1 [TRIPROLIDINE] | Compound NOT metabolized
* O=C(CCCN1CCC2(CC1)C(=O)NCN2c1ccccc1)c1ccc(F)cc1 [SPIPERONE] | Compound NOT metabolized
* CN(C(=O)CN(CCO)CC(=O)N(C)C(C)(C)Cc1ccccc1)C(C)(C)Cc1ccccc1 [OXETHAZAINE] | Compound NOT metabolized
* CC(=O)OCC(=O)[C@@]12N=C(C)O[C@@H]1C[C@H]1[C@@H]3CCC4=CC(=O)C=C[C@]4(C)[C@H]3[C@@H](O)C[C@@]12C [DEFLAZACORT] | Compound metabolized

###

Assay: The drug is tested on Bifidobacterium breve strain: DSM20213 for biotransformation. The drug concentrations were measured before and after a 12-h incubation by liquid-chromatography-coupled mass spectrometry (LC–MS)
Conditions: 2 µM
experimental-readout: Bacterial Biotransformation

• CCOC(=O)C1=C[C@]2(CC)CCCN3CCc4c(n1c1ccccc41)[C@@H]32 = Compound NOT metabolized
• CCOC(=O)[C@H](CCc1ccccc1)N[C@H]1CCc2ccccc2N(CC(=O)O)C1=O = Compound NOT metabolized
• O=C([O-])C[C@H](O)C[C@H](O)/C=C/c1c(C2CC2)nc2ccccc2c1-c1ccc(F)cc1.O=C([O-])C[C@H](O)C[C@H](O)/C=C/c1c(C2CC2)nc2ccccc2c1-c1ccc(F)cc1.[Ca+2] = Compound NOT metabolized

###

Assay: The drug is tested on Edwardsiella tarda strain: ATCC23685 for biotransformation. The drug concentrations were measured before and after a 12-h incubation by liquid-chromatography-coupled mass spectrometry (LC–MS)
Conditions: 2 µM
experimental-readout: Bacterial Biotransformation

* CC(C(=O)O)c1ccc2c(c1)Cc1cccnc1O2 (configuration not stated) | Compound metabolized
* CC(C)NCC(O)c1ccc(NS(C)(=O)=O)cc1 (configuration not stated) | Compound NOT metabolized
* N#Cc1ccc2c(c1)N(CCCN1CCC(O)CC1)c1ccccc1S2 | Compound NOT metabolized
* CCOC(=O)[C@H](CCc1ccccc1)N[C@@H](C)C(=O)N1[C@H](C(=O)O)C[C@H]2CCCC[C@@H]21 | Compound NOT metabolized
* Cc1cn([C@H]2C[C@H](N=[N+]=[N-])[C@@H](CO)O2)c(=O)[nH]c1=O | Compound NOT metabolized
* CN(C)CCOC(C)(c1ccccc1)c1ccccn1.O=C(O)CCC(=O)O (configuration not stated) [DOXYLAMINE SUCCINATE] | Compound NOT metabolized
* CCOC(=O)[C@H](CCc1ccccc1)N[C@@H](C)C(=O)N1[C@H](C(=O)O)C[C@@H]2CCC[C@@H]21 | Compound NOT metabolized
* CC(C)(C)NC[C@H](O)COc1ccccc1C1CCCC1.CC(C)(C)NC[C@H](O)COc1ccccc1C1CCCC1.O=S(=O)(O)O [PENBUTOLOL SULFATE] | Compound NOT metabolized
* CCC(C)n1ncn(-c2ccc(N3CCN(c4ccc(OCC5COC(Cn6cncn6)(c6ccc(Cl)cc6Cl)O5)cc4)CC3)cc2)c1=O (configuration not stated) | Compound NOT metabolized
* NC(=O)N1c2ccccc2CC(=O)c2ccccc21 [OXCARBAZEPINE] | Compound metabolized
* C=CCN1CC[C@]23c4c5ccc(O)c4O[C@H]2C(=O)CC[C@@]3(O)[C@H]1C5 | Compound NOT metabolized
* O=C1C(CC[S+]([O-])c2ccccc2)C(=O)N(c2ccccc2)N1c1ccccc1 (configuration not stated) | Compound NOT metabolized
* CN1CCN(C2=Nc3cc(Cl)ccc3Nc3ccccc32)CC1 | Compound NOT metabolized
* CC1=C(CC(=O)O)c2cc(F)ccc2/C1=C\c1ccc([S+](C)[O-])cc1 (configuration not stated) | Compound NOT metabolized
* Br.CN1CCC[C@@H]1Cc1c[nH]c2ccc(CCS(=O)(=O)c3ccccc3)cc12 [ELETRIPTAN HYDROBROMIDE] | Compound NOT metabolized
* COc1ccccc1OCC(O)COC(N)=O (configuration not stated) | Compound NOT metabolized
* CN1CCN(CC/C=C2/c3ccccc3Sc3ccc(S(=O)(=O)N(C)C)cc32)CC1 | Compound metabolized
